- System: P388 leukemia ip, CD2F1 mice, survival T/C
- TEST_DETAILS: NCI In Vivo Anticancer Drug Screen. Data for tumor model P388 Leukemia (intraperitoneal) in CD2F1 (CDF1) mice
- CONDITIONS: endpoint: median survival time; dose: 400.0 mg/kg/injection; schedule: Q01DX009 (ip); vehicle: Klucel (hydroxypropylcellulose) (HPC)
Toxic doses and inconclusive results are not listed. Rule for the calls: active = survival T/C of 150% or more; inactive = T/C below 125% in these data.
Classes used: active, inactive

>>> assigned_class("Cc1cc(N(CCCl)CCCl)ccc1C=Nc1ccccc1-c1ccccc1")
"active"
>>> assigned_class("O=C1c2ccccc2C(=C2c3ccccc3C(=O)c3ccccc32)c2ccccc21")
"inactive"
>>> assigned_class("Cc1ccc(S(=O)(=O)OCC2CCCC2COS(=O)(=O)c2ccc(C)cc2)cc1 (centres undefined)")
"inactive"
>>> assigned_class("CCCCOC(=O)C1C(C(=O)OCCCC)C2(Cl)C(Cl)=C(Cl)C1(Cl)C2(Cl)Cl (centres undefined)")
"inactive"
